Collected IL6, Luminex (supernatant) values appear next to each entry.
Molecular target: T1, T cell receptor (TCR) Vγ9 (TRGV9) (human, UniProt Q99603 21-122); also: unit not given here
T1 chain (looked up): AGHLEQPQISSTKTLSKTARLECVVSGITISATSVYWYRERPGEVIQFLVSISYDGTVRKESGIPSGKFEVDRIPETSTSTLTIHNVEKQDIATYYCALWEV
Assay: cell-based or functional assay
Lab note: jot down the number only; don't add units.

Example entries and their recorded answers appear below.
>>> measured("VG9B73 (antibody, human IgG1, kappa, V domains shown) VH: EVQLVQSGGGLVKPGGSLRLSCAASGFTFSNYDMNWVRQAPGKGLEWVSSISSSSSYIYYADSVKGRFTISRDNARNSLFLQMSSLRAEDTAVYYCAREIGVTGTTYYQDYGMDVWGQGTTVTVSS VL: EIVMTQSPGTLSLSPGERATLSCRASQSFSSNYLAWYQQKPGQAPRLLIYGASSRATGIPDRFSGSGSGTDFTLTISRLEPEDFALYYCQQYGSSPPFTFGQGTKVEIKR")
359
>>> measured("VG9B198 (antibody, human IgG1, lambda, V domains shown) VH: QVQLQESGPGLVKPSETLSLTCTVSGDSISSIYWSWIRQSAGKGLEWIGRIYTTDITNYNPSLKSRVTMSADTSKNQLSLKLTSVTAADTAVYYCAKNGYSYGGFNYWGQGTLVTVSS VL: QSVLTQPPSVSGAPGQRVTISCTGSSSNIGAGYDVHWYQRLPGTAPKLLIYGDSYRPSGVPDRFSGSKSGTSASLAITGLQAEDEADYYCQSYDSSLSVVVFGGGTKLTVLG")
199
>>> measured("VG9B98 (antibody, human IgG1, kappa, V domains shown) VH: EVQLVQSGGDLVKSGGSLRLSCAASGFTFSSYSMYWVRQAPGKGLEWVSSIGSSSTYIFYADSVKGRFTISRDNAMTSLYLQMNRLGAEDSAVYYCARDGELGPFEYWGQGTLVTVSS VL: EIVLTQSPGTLSLSPGERATLSCRASQSVSTSYLAWFQQKPGQAPRLLIFGTSSRATGIPDRFSGSGSGTDFTLTISRLEPEDFAVYHCLQYGRSPLTFGGGTKVDIKR")
294
>>> measured("VG9B430 (antibody, human IgG1, kappa, V domains shown) VH: EVQLLESGGGLVKPGGSLRLSCSASGFTFSSYDMNWVRQAPGKGLEWVSSISSSSSYIYYADSVKGRFTISRDNAKNSLYLQMNSLRAEDTAVYHCARDVGVTTDYYYYGMDVWGQGTMVTVSS VL: EIVLTQSPGTLSLSPGDRATLSCRASQSVASSYLAWYQQKPGQSPRLLIYGASSRATGIPDRFSGSGSGTDFTLTISRLEPEDFAVYYCQQYGSSPPYTFGQGTKLEIKR")
372

We next turn to a different binder, shown below.
Quick note, IL6, Luminex (supernatant) for VG9B104 (antibody, human IgG1, kappa, V domains shown) VH: EVQLVESGGGLVKPGGSLRLSCAASGFTFSVYSMNWVRQAPGKGLEWVSSIGSSSSYIFYADSVKGRFTISRDNAKNSLYLQMNSLRAEDTAVYYCGRDHDYGGLDYWGQGTLVTVSS VL: EIVLTQSPGTLSLSPGERATLSCRASQSVSSSYLAWYQQKPGQAPRLLIYGPSNRATDIPDRFSGTGSGTDFTLTISRLEPEDFAVYYCQQYGRSPLTFGGGTKVEIKR landed at 1090
